Overview of reported logD across a group of compounds:
- procedure_summary: Partition coefficient (logD7.4)
- test_context: octanol/water, pH 7.4
quantity: logD

In [3]: df
Out[3]:
                      smiles_repr  value
0  Fc1cccc(Cl)c1N(CC1CC1)C1=NCCN1  -0.98
1    CCCN(C1=NCCN1)c1c(Br)cccc1Br  -0.55
2  C=CCCN(C1=NCCN1)c1c(Br)cccc1Br  -0.63
